tested on: LpxC enzyme; assay: LpxC enzyme assay (RapidFire high-throughput mass spectrometry); format: biochemical; settings: concentration 0.10 (unit not given)
endpointLabel: LpxC enzyme assay rating (% inhibition at indicated concentrations)

>>> print(df.to_string())
                             chemicalsmiles  testedsystem          measuredvalue
0  CN(C)C(=O)[C@H](O)[C@@H](O)C(=O)Nc1ccc(-c2cc[nH]n2)cc1   LpxC enzyme  B (10-30% inhibition)
1  CN1CCN(c2ccc(NC(=O)[C@H](O)[C@@H](O)C(=O)N3CCCC3)cc2)CC1   LpxC enzyme  B (10-30% inhibition)
2  CN(C)C(=O)[C@H](O)[C@@H](O)C(=O)N1CCC(c2ccc(C(F)(F)F)cc2)CC1   LpxC enzyme  B (10-30% inhibition)

----------
Test system: LpxC enzyme
Assay: LpxC enzyme assay (RapidFire high-throughput mass spectrometry)
Type: biochemical
Conditions: concentration 12.50 (unit not given)
Method: The standard LpxC assay consists of 0.2 nM LpxC enzyme, 1.0 μM UDP-3-O—(R-3-hydroxymyristoyl)-N-acetylglucosamine, and test compound, in assay buffer and 2% DMSO. […] The concentrations of substrate and product in the reaction mixtures are determined with BioTrove's proprietary RapidFire™ high-throughput mass spectrometry (HTMS). […] The mass spectrometry peak areas of the substrate and product are measured to determine the concentration of these analytes. […]
endpointLabel: LpxC enzyme assay rating (% inhibition at indicated concentrations)

Recorded results for 5 compounds are shown here.
                                   compound          measuredvalue
0  O=C(NCCCCl)[C@H](O)[C@@H](O)C(=O)Nc1ccc(-n2cccn2)cc1 [Compound 62]  B (10-30% inhibition)
1  CN(C)C(=O)[C@H](O)[C@@H](O)C(=O)N1CCN(c2ccc(-c3ccccc3)cc2)CC1 [Compound 47]  B (10-30% inhibition)
2  CNC(=O)[C@H](O)[C@@H](O)C(=O)Nc1ccc(-c2cc[nH]n2)cc1 [Compound 42]  B (10-30% inhibition)
3  CCCCc1ccc(NC(=O)[C@H](O)[C@@H](O)C(=O)N2CCCC2)cc1 [Compound 66]  B (10-30% inhibition)
4  CNC(=O)[C@H](O)[C@@H](O)C(=O)N1CCN(c2cccc(-c3ccccc3)c2)CC1 [Compound 31]  B (10-30% inhibition)

Next:
IN: # get_value(readout='LpxC enzyme assay rating (% inhibition at indicated concentrations)', item= CNC(=O)[C@H](O)[C@@H](O)C(=O)Nc1ccc(-c2ccccc2)cc1 [Compound 27] )
OUT: B (10-30% inhibition)

----------
Could you please report measured IC50 for the items listed next?
Target: ADMP (ADAMTS-4-5) (Homo sapiens, UniProt O75173)
Construct: purchased Calbiochem PF113
Sequence (O75173 213-837): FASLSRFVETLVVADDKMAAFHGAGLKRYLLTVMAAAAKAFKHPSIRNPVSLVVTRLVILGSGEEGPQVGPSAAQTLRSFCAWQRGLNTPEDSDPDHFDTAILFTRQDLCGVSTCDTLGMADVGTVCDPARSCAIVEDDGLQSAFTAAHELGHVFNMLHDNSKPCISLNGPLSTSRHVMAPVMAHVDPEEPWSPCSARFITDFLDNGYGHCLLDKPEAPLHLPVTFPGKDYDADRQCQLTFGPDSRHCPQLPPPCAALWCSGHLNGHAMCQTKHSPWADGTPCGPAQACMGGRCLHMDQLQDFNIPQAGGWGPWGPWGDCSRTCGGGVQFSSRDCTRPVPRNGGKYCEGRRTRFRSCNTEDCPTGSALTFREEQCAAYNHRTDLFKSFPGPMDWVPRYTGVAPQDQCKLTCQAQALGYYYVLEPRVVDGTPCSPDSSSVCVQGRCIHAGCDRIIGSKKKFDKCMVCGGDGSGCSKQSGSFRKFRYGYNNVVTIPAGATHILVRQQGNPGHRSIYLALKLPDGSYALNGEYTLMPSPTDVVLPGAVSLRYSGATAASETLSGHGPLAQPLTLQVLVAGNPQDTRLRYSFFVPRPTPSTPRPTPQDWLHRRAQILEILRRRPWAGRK
Assay: ADMP activity assay (procedures of WO00/05256)
Assay type: biochemical
Settings: read-out: IC50 rating (ADMP inhibitory activity)

>>> print(df.to_string())
                                   molecule                              testedsystem  endpointlabel   measuredvalue
0  CN(Cc1ccccc1)C(=O)[C@H](O)[C@@H](O)C(=O)NCc1ccc(Cl)cc1  ADMP (ADAMTS-4-5) (Homo sapiens, UniProt O75173)           IC50  250 to 1000 nM
1  C[C@H](NC(=O)[C@H](O)[C@@H](O)C(=O)N[C@H]1c2ccccc2C[C@H]1O)c1ccc(Br)cc1  ADMP (ADAMTS-4-5) (Homo sapiens, UniProt O75173)           IC50       > 5000 nM
2  O=C(NCc1cccc(I)c1)C(O)C(O)C(=O)N1CCc2ccccc2C1 (stereo not drawn)  ADMP (ADAMTS-4-5) (Homo sapiens, UniProt O75173)           IC50       > 5000 nM
3  C[C@H](NC(=O)[C@H](O)[C@@H](O)C(=O)N1CCCC1c1ccccc1)c1ccc(Br)cc1 (stereo partly drawn)  ADMP (ADAMTS-4-5) (Homo sapiens, UniProt O75173)           IC50  250 to 1000 nM
4  C[C@H](NC(=O)[C@H](O)[C@@H](O)C(=O)N1CCC(Oc2ccccc2)CC1)c1ccc(Br)cc1  ADMP (ADAMTS-4-5) (Homo sapiens, UniProt O75173)           IC50        < 250 nM
5  O=C(NCc1ccc(Br)cc1)[C@H](O)[C@@H](O)C(=O)N1CCc2ccccc2C1  ADMP (ADAMTS-4-5) (Homo sapiens, UniProt O75173)           IC50  250 to 1000 nM

For each entry beneath this line, provide reported IC50.
1. C[C@H](NC(=O)[C@H](O)[C@@H](O)C(=O)N1CCc2ccccc2C1)c1ccc(-c2cccc(N3CCCC3)c2)cc1
2. COc1ccc(N2CCN(C(=O)[C@H](O)[C@@H](O)C(=O)NCCc3cccc(Cl)c3)CC2)cc1
3. CN1CCC(N(C)C(=O)[C@@H](O)[C@H](O)C(=O)NCc2ccc(I)cc2)CC1
4. C[C@H](NC(=O)C(O)C(O)C(=O)N1Cc2ccccc2C1)c1ccc(O)cc1 (stereo partly drawn)
5. C[C@@H](c1ccc(Br)cc1)N(C)C(=O)[C@@H](O)[C@H](O)C(=O)N1CCc2ccccc2C1
6. COc1ccccc1N1CCN(C(=O)[C@H](O)[C@@H](O)C(=O)N[C@@H](C)c2ccc(Br)cc2)CC1
7. C[C@H](NC(=O)[C@H](O)[C@@H](O)C(=O)N(C)CCc1ccccc1)c1ccc(Br)cc1
8. C[C@H](NC(=O)[C@H](O)[C@@H](O)C(=O)N1CCCC1c1nc2ccccc2s1)c1ccc(Br)cc1 (stereo partly drawn)

OUT:
< 250 nM
250 to 1000 nM
> 5000 nM
< 250 nM
> 5000 nM
250 to 1000 nM
250 to 1000 nM
< 250 nM

IN: # get_value(readout='IC50', item= "O=C(NCc1ccc(C(F)(F)F)cc1)[C@H](O)[C@@H](O)C(=O)N1CCN(c2cccc(Cl)c2)CC1" )
OUT: 250 to 1000 nM
